Reference for the values: patent US20240166747A1

pIC50 values, listed per item
# experimental.system: human CD96v2 expressed on cells (human) (UniProt P40200)
# method.description: competition flow cytometry, inhibition of CD155-Fc-AF647 binding to CHO cells expressing human CD96v2
Scale: negative log10 of molar concentration, which is what pIC50 denotes.

42Y073-86F08-17 (antibody, V domains shown) VH: QVQLVQSGAEVKKPGSSVKVSCKASGGTFREYAISWVRQAPGQGLEWMGGIIPVFGTANYAQKFQGRVTITADESTSTAYMELSSLRSEDTAVYYCARGAGYYGDKDPMDVWGQGTTVTVSS VL: DIQLTQSPSSLSASVGDRVTITCRASQSISSYLNWYQQKPGKAPKLLIYAASSLQSGVPSRFSGSGSGTDFTLTISSLQPEDFATYYCQQVLHTITFGGGTKVEIK | 9.28
42Y073-1A01-85 (antibody, V domains shown) VH: QVQLVQSGAEVKKPGASVKVSCKASGYTFTSYPMHWVRQAPGQGLEWMGIINPSGGFTSYAQKFQGRVTMTRDTSTSTVYMELSSLRSEDTAVYYCARETAYYTTKGNWFDPWGQGTLVTVSA VL: DIQMTQSPSSLSASVGDRVTITCRASQSISSYLNWYQQKPGKAPKLLIYAASSLQSGVPSRFSGSGSGTDFTLTISSLQPEDFATYYCQQSLYPPRTFGGGTKVEIK | 10.52
42Y073-86F08-4 (antibody, V domains shown) VH: QVQLVQSGAEVKKPGSSVKVSCKASGGTFSEYAIHWVRQAPGQGLEWMGNIIPIFGTAGYAQKFQGRVTITADESTSTAYMELSSLRSEDTAVYYCARGAGYYGDKDPMDVWGQGTTVTVSS VL: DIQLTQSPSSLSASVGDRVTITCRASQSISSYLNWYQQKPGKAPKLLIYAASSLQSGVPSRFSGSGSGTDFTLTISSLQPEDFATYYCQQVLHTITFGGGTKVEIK | 9.42

May I ask what pIC50 has been recorded for 42Y073-86F08-47 (antibody, V domains shown) VH: QVQLVQSGAEVKKPGSSVKVSCKASGGTFSQYAIHWVRQAPGQGLEWMGVIIPIFGKANYAQKFQGRVTITADESTSTAYMELSSLRSEDTAVYYCARGAGYYGDKDPMDVWGQGTTVTVSS VL: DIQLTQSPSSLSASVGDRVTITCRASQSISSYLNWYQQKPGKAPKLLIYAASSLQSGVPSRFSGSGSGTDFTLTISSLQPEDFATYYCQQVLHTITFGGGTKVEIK ? 9.77

May I ask what pIC50 has been recorded for 42Y073-86F08-3 (antibody, V domains shown) VH: QVQLVQSGAEVKKPGSSVKVSCKASGGTFVNYAISWVRQAPGQGLEWMGGIIPALGTANYAQKFQGRVTITADESTSTAYMELSSLRSEDTAVYYCARGAGYYGDKDPMDVWGQGTTVTVSS VL: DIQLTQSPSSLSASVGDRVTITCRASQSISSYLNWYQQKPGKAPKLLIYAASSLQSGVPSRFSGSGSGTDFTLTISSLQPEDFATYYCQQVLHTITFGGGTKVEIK ? 9.59

May I ask what pIC50 has been recorded for 42Y073-86F08-16 (antibody, V domains shown) VH: QVQLVQSGAEVKKPGSSVKVSCKASGGTFNEYAISWVRQAPGQGLEWMGGIVPVFGTAKYAQKFQGRVTITADESTSTAYMELSSLRSEDTAVYYCARGAGYYGDKDPMDVWGQGTTVTVSS VL: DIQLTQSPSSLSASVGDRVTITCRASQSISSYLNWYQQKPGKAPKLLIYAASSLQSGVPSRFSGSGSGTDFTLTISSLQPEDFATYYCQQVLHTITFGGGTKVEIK ? 9.11

May I ask what pIC50 has been recorded for 42Y073-86F08-8 (antibody, V domains shown) VH: QVQLVQSGAEVKKPGSSVKVSCKASGGTFWLYAISWVRQAPGQGLEWMGGIIPQLGTANYAQKFQGRVTITADESTSTAYMELSSLRSEDTAVYYCARGAGYYGDKDPMDVWGQGTTVTVSS VL: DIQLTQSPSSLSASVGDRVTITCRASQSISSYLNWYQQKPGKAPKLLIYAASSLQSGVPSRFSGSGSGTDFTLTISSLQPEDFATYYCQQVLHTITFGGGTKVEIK ? 9.03
